Biological target: T1, human CD25 (NP_000408.1) (Met 1-Cys 213) C-terminally fused with 6-histidine tag (human, UniProt P01589 22-213)
T1 construct: range 1-213; Expressed in CHO-K1 cells; also called human CD25-his
T1 sequence: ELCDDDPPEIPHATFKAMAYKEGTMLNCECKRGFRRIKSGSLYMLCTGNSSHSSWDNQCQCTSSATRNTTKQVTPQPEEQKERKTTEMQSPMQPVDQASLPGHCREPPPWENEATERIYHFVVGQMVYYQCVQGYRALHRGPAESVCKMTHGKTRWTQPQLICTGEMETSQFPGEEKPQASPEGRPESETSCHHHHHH
Test: ELISA, human CD25-his coated
assay_readout: Relative activity (%) compared with 686
Field format: number, assumed %, no unit text.

Suppose we examine the binder chimeric antibody 2046-24H2L1 (antibody, human IgG1, kappa, V domains shown, Chimeric, human IgG1/kappa; also called 2046-24ix) VH: DVQLQESGPGLVKPSQSLSLTCTVTGYSITSDYAWNWIRQFPGNKLEWMGYISYGGTTIYNPSLKSRISITRDTSKNQFFLQLNSVTTEDTATYYCARWLLQNYYAMDYWGQGTSVTVSS VL: DVVMTQTPLSLPVSLGDQASISCRSSQSLVHSNGNTYLHWYLQKPGQSPKVLIYKVSNRFSGVPDRFSGSGSGTDFTLKISRVEAEDLGVYFCSQNTHVPLTFGAGTKLELKR ; what Relative activity (%) compared with 686 value has been reported? 98.2

# get_value(readout='Relative activity (%) compared with 686', item= chimeric antibody 2046-18H1L1 (antibody, human IgG1, kappa, V domains shown, Chimeric, human IgG1/kappa; also called 2046-18ix) VH: DVQLQESGPGLVKPSQSLSLTCTVTGYSITSDYAWNWIRQFPGNKLEWMGYISYSGITIYNPSLKSRISITRDTSKNQFFLQLNSVTTEDTATYYCARWLLQIYYAMDYWGQGTSVTVSS VL: DVVMTQTPLSLPVSLGDQASISCSSSQSLVHSNGNTYLHWYLHKPGQSPKLLIYKVSNRFSGVPDRFSGSGSGTDFTLKISRVEAEDLGVYFCSQSTHVPLTFGAGTKLELKR ) 102

Bench note: what Relative activity (%) compared with 686 did chimeric antibody 2046-2H1L1 (antibody, human IgG1, kappa, V domains shown, Chimeric (murine V, human IgG1/kappa); also called 2046-2ix) VH: DVQLQESGPGLVKPSQSLSLTCTVTGYSITSDYAWNWIRHFPGNKLEWMGYITYSGSTVYNPSLKSRISITRDTSKNHFFLQLNSVTTEDTATYYCARWLLQIYYAMDYWGQGTSVTVSS VL: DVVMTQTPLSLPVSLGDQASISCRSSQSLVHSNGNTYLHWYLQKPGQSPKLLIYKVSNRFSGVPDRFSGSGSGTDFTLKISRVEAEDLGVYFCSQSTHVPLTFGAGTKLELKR show? 99
